assay: growth inhibitors of H69AR lung tumor, primary screen, human, duplicate replicates (AID 580); conditions: H69AR lung tumor cells viability, ATP luminescence, 72 h; at 10 µM; hits give low values;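 also: 100% = mean luminescence of untreated wells and 0% = no signal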
metric name: viability (%)
Hi! Could you send only the number? It should be in %, unit omitted.

Q. Would you kindly share the measured viability for CCn1c(SCC(=O)Nc2ccccc2F)nc2c(c1=O)SC(C)C2 (configuration not stated) ?
A. 95.3

Q. Would you kindly share the measured viability for COc1ccc(CN(C(=O)c2ccccc2OC)C2CCS(=O)(=O)C2)cc1 (configuration not stated) ?
A. 96.8

Q. Would you kindly share the measured viability for CN1CCN(C(=O)c2cnn3c(C(F)F)cc(C4CC4)nc23)CC1 ?
A. 94.4

Q. Would you kindly share the measured viability for COc1ccc(C(=O)CSc2nnc(-c3ccc(C)cc3)o2)cc1 ?
A. 86.4

Q. Would you kindly share the measured viability for Cc1[nH]nc(N=CC2=C(O)CC(C)(C)CC2=O)c1-c1ccccc1 ?
A. 88.6

Q. Would you kindly share the measured viability for Cc1[nH]nc2c1C1(CCN(C(=O)c3ccccc3)CC1)C(C#N)=C(N)O2 ?
A. 98.7

Q. Would you kindly share the measured viability for Cn1c(-c2ccc(C(C)(C)C)cc2)n[nH]c1=S ?
A. 82.1

Q. Would you kindly share the measured viability for Cc1ccc(-c2ccc(SCC(=O)Nc3nonc3C)nn2)cc1 ?
A. 88.8

Q. Would you kindly share the measured viability for OC(CCN1CCCC1)(c1ccccc1)C1CCCCC1 (configuration not stated) ?
A. 95.9

Q. Would you kindly share the measured viability for O=C1c2ccccc2C(=O)N1c1cccc(-c2nc3ccccc3o2)c1 ?
A. 111

Q. Would you kindly share the measured viability for CN(C(=O)C1CCOC1)c1nnc(-c2cccnc2)s1 (configuration not stated) ?
A. 88.5

Q. Would you kindly share the measured viability for Cn1c(COc2ccccc2)nnc1SCC(=O)Nc1ccc(N2CCOCC2)c(Cl)c1 ?
A. 94.4

Q. Would you kindly share the measured viability for CC(C)(Oc1ccc(CCNC(=O)c2ccc(Cl)cc2)cc1)C(=O)O ?
A. 105

Q. Would you kindly share the measured viability for O=c1c2ccccc2c(C=Nc2ccc(Cl)cn2)c(O)n1-c1cc(Cl)ccc1N1CCOCC1 ?
A. 89.1

Q. Would you kindly share the measured viability for COc1ccc(NC(=O)CSc2nnc(-c3ccncc3)n2CC2CCCO2)c(OC)c1 (configuration not stated) ?
A. 104

Q. Would you kindly share the measured viability for CCCCOc1ccc(N(CC(=O)NC2CCCC2)C(=O)CCC(=O)Nc2ccccn2)cc1 ?
A. 69.4

Q. Would you kindly share the measured viability for CN1C(=O)C(O)(CC(=O)c2ccc3c(c2)OCO3)c2ccccc21 (configuration not stated) ?
A. 82.5

Q. Would you kindly share the measured viability for COc1cc2c(C#N)c(N3CCOCC3)nc(N)c2c(N)n1 ?
A. 75.2

Q. Would you kindly share the measured viability for Cc1oc2cc3c(C(=O)OCCN(C)C)c(C)oc3cc2c1C(=O)OCCN(C)C ?
A. 90.4
